Here, each record is paired with measured Concentration data.
System: Rattus norvegicus
ASSAY: Tested for effect on ethanol derived blood Ach levels in rats at 1.0 mmol/kg
Type: functional, organism-based

| COMPOUND | UNIT_INFO | Concentration |
| --- | --- | --- |
| N#CNC(=O)c1ccccc1 | µM | 100 |
| N#CNC(=O)Cc1ccccc1 | µM | 1300 |
| N#CNC(=O)[C@H](Cc1ccccc1)NC(=O)[C@@H]1CCC(=O)N1 | µM | 150 |
| N#CNC(=O)CNC(=O)c1ccccc1 | µM | 200 |
| CC(C)C[C@H](NC(=O)CNC(=O)OCc1ccccc1)C(=O)NC#N | µM | 35 |
| N#CN | µM | 225 |
| CCCCCCCCCCCCCCCCCC(=O)NC#N | µM | 600 |
| CC(C)(C)C(=O)NC#N | µM | 200 |
| N#CNC(=O)C1CCC(=O)N1C(=O)OCc1ccccc1 (configuration not stated) | µM | 35 |
| CCCCCCCCCCCCCCCC(=O)NC#N | µM | 1100 |
| N#CNC(=O)C12CC3CC(CC(C3)C1)C2 | µM | 75 |
| N#CNC(=O)CNC(=O)OCc1ccccc1 | µM | 35 |
| CC(C)C[C@H](NC(=O)[C@@H]1CCC(=O)N1)C(=O)NC#N | µM | 25 |
| CC(C)C[C@H](NC(=O)c1ccccc1)C(=O)NC#N | µM | 300 |
| CCCC(=O)NC#N | µM | 250 |
| CC(=O)NC#N | µM | 50 |
| N#CNC(=O)OCc1ccccc1 | µM | 50 |

Origin of measurements: ChEMBL document CHEMBL1123232
